tested_system: UniProt:P10632
Sequence (P10632 1-490): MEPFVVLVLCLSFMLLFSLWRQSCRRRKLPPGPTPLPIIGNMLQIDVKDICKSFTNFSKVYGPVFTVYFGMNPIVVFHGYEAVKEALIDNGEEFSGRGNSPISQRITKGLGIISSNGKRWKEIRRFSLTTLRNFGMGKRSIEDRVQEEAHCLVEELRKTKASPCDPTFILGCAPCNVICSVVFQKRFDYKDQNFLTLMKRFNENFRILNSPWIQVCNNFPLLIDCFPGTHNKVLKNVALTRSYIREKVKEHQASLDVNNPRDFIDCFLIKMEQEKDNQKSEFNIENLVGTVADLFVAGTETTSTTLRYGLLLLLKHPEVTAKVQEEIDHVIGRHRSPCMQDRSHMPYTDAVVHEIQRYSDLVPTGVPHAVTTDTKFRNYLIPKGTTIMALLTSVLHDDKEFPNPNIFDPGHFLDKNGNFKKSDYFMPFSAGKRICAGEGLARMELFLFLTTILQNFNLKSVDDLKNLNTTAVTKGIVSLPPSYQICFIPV
measurement_protocol: CYP inhibition in human liver microsomes, CYP2C8
applied_conditions: human, human liver microsomes, pH 7.4, probe paclitaxel
quantity_kind: inhibition at 2 µM (%)
Give bare numbers, in %.

compound: CC(C)(O)c1ccccc1CC[C@@H](SCC1(CC(=O)O)CC1)c1cccc(/C=C/c2ccc3ccc(Cl)cc3n2)c1 [Montelukast, montelukast, reference compound]
inhibition at 2 µM (%): 93.7

Prompt line: Look up inhibition at 2 µM for this compound: CNC(=O)O/N=C/C(C)(C)S(C)(=O)=O
Response line: 2.77

Source: paper PMC6416464
